Assay: qHTS Assay for Foot and Mouth Disease Virus Antivirals: Primary Screen against the MLPCN compound library; note: nearly all actives have a fitted effect of over 55% in size
Conditions: FMDV antiviral cell-based qHTS; series mostly up to 57.9 µM
Hit rate of the full screen: of about 410,000 compounds, about 2,000 (0.49%) were called active. Not shown: some 8% with an inconclusive outcome. Calls come from the whole dose curve; tested in HEK293 reporter line. The entries come from a sample that favours actives as a whole.
Classes used: active, inactive

>  <Compound>
CC(C)c1cc(Br)c(NC(=O)Nc2cccnc2)c(Br)c1

>  <Category label>
inactive

$$$$
>  <Compound>
COc1ccc(/C=N/Nc2ccc(C(=O)O)cc2)cc1Br

>  <Category label>
inactive

$$$$
>  <Compound>
Cc1ccc(-c2ccnc3nc(Sc4ncc(C(F)(F)F)cc4Cl)nn23)cc1

>  <Category label>
inactive

$$$$
>  <Compound>
CCCOc1ccccc1C(=O)N(Cc1cccc(Br)c1)C1CCS(=O)(=O)C1 (stereo unspecified)

>  <Category label>
inactive

$$$$
>  <Compound>
CCOc1ccccc1CNC(=O)CSc1n[nH]c(-c2ccccc2)n1

>  <Category label>
inactive

$$$$
>  <Compound>
CCC(C)n1c(S(=O)(=O)O)nc2ccccc21 (stereo unspecified)

>  <Category label>
inactive

$$$$
>  <Compound>
COc1ccc(-c2ccc3c(c2)CN(C(=O)C(C)(C)C)Cc2cnnn2-3)cc1

>  <Category label>
inactive

$$$$
>  <Compound>
CC(C)c1ccc(/C=N/Nc2ccc(C(=O)O)cc2)cc1

>  <Category label>
inactive

$$$$
>  <Compound>
Cc1nn2cc(-c3ncc(C(F)(F)F)cc3Cl)cnc2c1Br

>  <Category label>
active

$$$$
>  <Compound>
COCC(C)n1c(C)cc(C(=O)COC(=O)c2cc(=O)[nH]c3ccccc23)c1C (stereo unspecified)

>  <Category label>
inactive

$$$$
>  <Compound>
Cc1nn(Cc2ccc(Cl)cc2)c(=O)n1N(C)c1ncc(C(F)(F)F)cc1Cl

>  <Category label>
inactive

$$$$
